Below is a list of entries, each paired with its recorded fold increase in potency at the mMC4R compared to 1 value.
# Target or test system: mMC4R (Mus musculus)
# Sequence (P56450 whole entry): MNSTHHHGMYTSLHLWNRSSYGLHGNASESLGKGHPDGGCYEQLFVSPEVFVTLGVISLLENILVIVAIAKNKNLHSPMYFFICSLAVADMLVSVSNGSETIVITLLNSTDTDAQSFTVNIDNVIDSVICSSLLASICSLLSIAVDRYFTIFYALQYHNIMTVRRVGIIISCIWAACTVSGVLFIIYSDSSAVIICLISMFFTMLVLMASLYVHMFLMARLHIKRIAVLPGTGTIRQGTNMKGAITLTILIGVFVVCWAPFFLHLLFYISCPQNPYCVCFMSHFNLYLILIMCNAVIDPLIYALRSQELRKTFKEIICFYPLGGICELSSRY
# Experimental context: calculated using Ki values from Schild analysis
Square brackets hold non-standard residues; d marks the D form. Peptide text beside a SMILES is read from it. hPhe = N[C@@H](CCc1ccccc1)C(=O)O; Nle = CCCC[C@H](N)C(=O)O
Reported endpoint: fold increase in potency at the mMC4R compared to 1

# Molecule, Assay result
rows = [
    ("CCCC[C@@H]1NC(=O)[C@H](C)NC(=O)[C@H](CCCNC(=N)N)NC(=O)[C@H](Cc2ccccc2)NC(=O)[C@H](Cc2ccccc2)NC(=O)[C@H](CCCNC(=N)N)NC(=O)[C@@H]2CCCN2C(=O)[C@H]2CCCN2C1=O [Compound 10, c[Pro-Arg-Phe-Phe-Arg-Ala-Nle-DPro]] (cyclo(RFFRA[Nle][dP]P))", "≥ 10 fold"),
    ("C[C@@H]1NC(=O)[C@H](CCCNC(=N)N)NC(=O)[C@H](CCc2ccccc2)NC(=O)[C@H](Cc2ccccc2)NC(=O)[C@H](CCCNC(=N)N)NC(=O)[C@@H]2CCCN2C(=O)[C@H]2CCCN2C(=O)[C@H](Cc2ccccc2)NC1=O [Compound 21, c[Pro-Arg-Phe-hPhe-Arg-Ala-Phe-DPro]] (cyclo(RF[hPhe]RAF[dP]P))", "6 fold"),
    ("N=C(N)NCCC[C@@H]1NC(=O)[C@@H]2CCCN2C(=O)[C@H]2CCCN2C(=O)[C@H](Cc2ccccc2)NC(=O)[C@H](CO)NC(=O)[C@H](CC(N)=O)NC(=O)[C@H](Cc2ccccc2)NC(=O)[C@H](Cc2ccccc2)NC1=O [Compound 3, c[Pro-Arg-Phe-Phe-Asn-Ser-Phe-DPro]] (cyclo(RFFNSF[dP]P))", "≤ 10 fold"),
]
